# System: HEK293 (non-expressing parental cells)
# Procedure Summary: FACS cell surface binding
Test Readout: FACS Cell Binding (Fold Above Background)
Record the result as a number with its unit.

Consider the molecule H1H6785P: anti-PRLR antibody, human IgG1 Fc; HCVR/LCVR SEQ ID NOs 98/106 (antibody, V domains shown, human IgG1 Fc) VH: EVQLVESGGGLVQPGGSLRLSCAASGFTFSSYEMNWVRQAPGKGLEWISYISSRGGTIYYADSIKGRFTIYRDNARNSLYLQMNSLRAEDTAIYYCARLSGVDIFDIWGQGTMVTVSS VL: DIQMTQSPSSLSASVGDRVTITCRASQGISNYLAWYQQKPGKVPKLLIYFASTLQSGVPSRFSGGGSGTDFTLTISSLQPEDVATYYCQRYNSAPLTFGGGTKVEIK and give its measured FACS Cell Binding (Fold Above Background). 1 Fold Above Background
